- Protocol text: Selectivity index, ratio of CTD50 for MDCK cells to ED50 for Influenza A virus (A/California/07/09(H1N1)) pdm09
- Type: toxicity, cell-based
- Test conditions: dog, read-out: Selectivity Index
Recorded metric: selectivity ratio
Reply briefly: the number, and no unit.

Field: example entries. Status: answers known.
>>> measured_value("COc1c(C)c(O)c(C(=O)/C=C/c2ccccc2)c2c1[C@]1(C)C(=Cc3c(c(C)nn3-c3ccccc3)[C@H]1O)O2")
1.1
>>> measured_value("COc1ccc(-c2cc(-c3c(O)c(C)c(OC)c4c3OC3=Cc5c(c(C)nn5-c5ccccc5)[C@@H](O)[C@@]34C)n[nH]2)cc1")
10
>>> measured_value("CC(=O)[C@@]12O[C@@]13OC1=Cc4c(c(C)nn4-c4ccccc4)C(=O)[C@]1(C)[C@@]3(O)C(O)=C(C)C2=O")
5

Incoming: # input compound: `CC(=O)C1=C(O)C=C2Oc3c(C(=O)CSc4nc5ccccc5o4)c(O)c(C)c(O)c3[C@@]2(C)C1=O` ; wanted: its selectivity ratio
Outgoing: 1

====

- Protocol text: Cytotoxicity against MDCK cells assessed reduction in cell viability after 48 hrs by MTT assay
- Assay type: cell-based, Canis lupus familiaris
- Test conditions: dog, read-out: CTD50
// values below are reported CC50 at 48 h
Entry rule: numbers only, all in µM.

Some solved cases for reference:
>>> measured_value("COc1cccc(/C=C/C(=O)c2c(O)c(C)c(OC)c3c2OC2=Cc4c(c(C)nn4-c4ccccc4)[C@@H](O)[C@@]23C)c1OC")
862
>>> measured_value("CC(=O)C1=C(O)C=C2Oc3c4c(c(C)c(O)c3[C@@]2(C)C1=O)O/C(=C\\c1cccnc1)C4=O")
53.4
>>> measured_value("COc1c(C)c(O)c(C(=O)/C=C/c2ccccc2)c2c1[C@@]1(C)C(=Cc3c(c(C)nn3-c3ccccc3)[C@@H]1O)O2")
106
>>> measured_value("COc1c(C)c(O)c2c(c1C(=O)CSCCC(=O)O)OC1=CC(O)=C(C(C)=O)C(=O)[C@@]12C")
938
>>> measured_value("COc1c(C)c(O)c(C(=O)/C=C/c2ccccc2)c2c1[C@]1(C)C(=Cc3c(c(C)nn3-c3ccccc3)[C@H]1O)O2")
36.5
>>> measured_value("COc1c(C)c(O)c(C(C)=O)c2c1[C@]1(C)C(=Cc3c(c(C)nn3-c3ccccc3)CC13CO3)O2 (single isomer, unassigned; (+))")
681
>>> measured_value("CC(=O)C1=C(O)C=C2Oc3c(C(C)=O)c(O)c(C)c(O)c3[C@]2(C)C1=O [(-)-USNIC ACID]")
134
>>> measured_value("CC(=O)C1=C(O)C=C2O[C@@]34O[C@]3(C(C)=O)C(=O)C(C)=C(O)[C@@]4(O)[C@]2(C)C1=O")
152

Incoming: Dear colleague, I am looking for the recorded CC50 at 48 h of the following molecule: `CC(=O)C1=C(O)C=C2Oc3c(C(C)=O)c(OC(=O)c4ccccc4Br)c(C)c(OC(=O)c4ccccc4Br)c3[C@@]2(C)C1=O`
Outgoing: 31.1

Incoming: Check `COc1ccc(/C=C/C(=O)c2c(O)c(C)c(OC)c3c2OC2=Cc4c(c(C)nn4-c4ccccc4)[C@@H](O)[C@@]23C)cc1OC` too.
Outgoing: 431

Incoming: Consider next the molecule `CC(=O)c1c(O)c(C)c(O)c2c1OC1=Cc3c(c(C)nn3-c3ccccc3)C(=O)[C@@]12C` in the same way.
Outgoing: 832

====

- Protocol text: Selectivity index, ratio of CTD50 for MDCK cells to ED50 for Influenza A virus (A/California/07/09(H1N1)) pdm09
- Type: toxicity, cell-based
- Test conditions: dog, read-out: Selectivity Index
Recorded measurements of selectivity ratio, one per entry
Response field accepts a number only; no unit should be typed.

Completed entries (count: 10):
>>> measured_value("COc1c(C)c(O)c2c(c1C(=O)CSC1=NCCS1)OC1=CC(O)=C(C(C)=O)C(=O)[C@@]12C")
7.1
>>> measured_value("CC(=O)c1c(O)c(C)c(O)c2c1OC1=Cc3c(c(C)nn3-c3ccccc3)C(=O)[C@]12C")
10
>>> measured_value("CC(=O)c1c(O)c(C)c(O)c2c1OC1=CC(=O)/C(=C(/C)NCCCC(=O)O)C(=O)[C@@]12C")
3.7
>>> measured_value("COc1cccc(/C=C/C(=O)c2c(O)c(C)c(OC)c3c2OC2=Cc4c(c(C)nn4-c4ccccc4)[C@@H](O)[C@@]23C)c1OC")
17
>>> measured_value("COc1ccccc1/C=C1\\Oc2c(C)c(O)c3c(c2C1=O)OC1=CC(O)=C(C(C)=O)C(=O)[C@@]13C")
6.8
>>> measured_value("COc1ccc(/C=C/C(=O)c2c(O)c(C)c(OC)c3c2OC2=Cc4c(c(C)nn4-c4ccccc4)[C@@H](O)[C@@]23C)cc1OC")
12.5
>>> measured_value("CC(=O)c1c(O)c(C)c(O)c2c1OC1=CC(=O)/C(=C(/C)NCCC(=O)O)C(=O)[C@@]12C")
20.3
>>> measured_value("CC(=O)C1=C(O)C=C2Oc3c(C(C)=O)c(O)c(C)c(O)c3[C@@]2(C)C1=O [(+)-USNIC ACID]")
8.2
>>> measured_value("CC(=O)c1c(O)c(C)c(O)c2c1OC1=Cc3c(c(C)nn3-c3cccc(C(F)(F)F)c3)C(=O)[C@@]12C")
16
>>> measured_value("CC(=O)C1=C(O)C=C2Oc3c(C(=O)CSc4nc5ccccc5s4)c(O)c(C)c(O)c3[C@@]2(C)C1=O")
2

Next item in the queue.
Incoming: Data request, read-out selectivity ratio, for `CC(=O)C1=C(O)C=C2Oc3c(C(=O)CSCc4ccc(C)cc4)c(O)c(C)c(O)c3[C@@]2(C)C1=O`
Outgoing: 1

====

- Protocol text: Selectivity index, ratio of CTD50 for MDCK cells to ED50 for Influenza A virus (A/California/07/09(H1N1)) pdm09
- Format: toxicity, cell-based
- Test conditions: dog, read-out: Selectivity Index
Field 'label' (enum: T / F). Set to T when selectivity ratio is strictly under 10; else F.

Known results for compounds:
>>> label("COc1c(C)c(O)c(C(=O)/C=C/c2ccccc2)c2c1[C@@]1(C)C(=Cc3c(c(C)nn3-c3ccccc3)[C@@H]1O)O2")
"T"
>>> label("CC(=O)C1=C(O)C=C2Oc3c4c(c(C)c(O)c3[C@@]2(C)C1=O)O/C(=C\\c1ccc(Br)cc1)C4=O")
"T"
>>> label("CC(=O)C1=C(O)C=C2Oc3c4c(c(C)c(O)c3[C@]2(C)C1=O)OCC4=O")
"T"
>>> label("COc1c(C)c(O)c(C(=O)/C=C/c2ccccc2)c2c1[C@]1(C)C(=Cc3c(c(C)nn3-c3ccccc3)CC13CO3)O2 (single isomer, unassigned; (+))")
"T"
>>> label("COc1ccccc1/C=C/C(=O)c1c(O)c(C)c(OC)c2c1OC1=Cc3c(c(C)nn3-c3ccccc3)[C@H](O)[C@]12C")
"F"

Incoming: Consider CC(=O)C1=C(O)C=C2Oc3c(C(C)=O)c(OC(F)(Cl)C(F)F)c(C)c(O)c3[C@@]2(C)C1=O (some centres undefined) . Does its selectivity ratio lie strictly below 10?
Outgoing: F

Incoming: Another: `COc1ccc(OC)c(/C=C/C(=O)c2c(O)c(C)c(OC)c3c2OC2=Cc4c(c(C)nn4-c4ccccc4)[C@@H](O)[C@@]23C)c1`
Outgoing: F

Incoming: What do we get for `CC(=O)C1=C(O)C=C2O[C@@]34O[C@]3(C(C)=O)C(=O)C(C)=C(O)[C@@]4(O)[C@]2(C)C1=O` ?
Outgoing: T

Incoming: Now consider `COc1ccc(/C=C/C(=O)c2c(O)c(C)c(OC)c3c2OC2=Cc4c(c(C)nn4-c4ccccc4)[C@@H](O)[C@@]23C)c(OC)c1` and answer again.
Outgoing: F

====

- Protocol text: Selectivity index, ratio of CTD50 for MDCK cells to ED50 for Influenza A virus (A/California/07/09(H1N1)) pdm09
- Type: toxicity, cell-based
- Test conditions: dog, read-out: Selectivity Index
Labelling: selectivity ratio reported below 6 becomes TRUE; at or above becomes FALSE.

Worked cases, answers included:
>>> label("COc1c(C)c(O)c2c(c1C(=O)CSCCC(=O)O)OC1=CC(O)=C(C(C)=O)C(=O)[C@@]12C")
"TRUE"
>>> label("COc1c(C)c(O)c(C(=O)/C=C/c2ccc(SC)cc2)c2c1[C@]1(C)C(=Cc3c(c(C)nn3-c3ccccc3)[C@H]1O)O2")
"FALSE"
>>> label("COc1c(C)c(O)c(C(=O)/C=C/c2ccc(Cl)cc2)c2c1[C@@]1(C)C(=Cc3c(c(C)nn3-c3ccccc3)[C@@H]1O)O2")
"TRUE"
>>> label("COc1c(C)c(O)c2c(c1C(=O)CSc1nc3ccccc3o1)OC1=CC(O)=C(C(C)=O)C(=O)[C@]12C")
"FALSE"
>>> label("CC(=O)c1c(O)c(C)c(O)c2c1OC1=Cc3c(c(C)nn3-c3ccccc3)[C@H](O)[C@]12C")
"TRUE"

Incoming: selectivity ratio strictly < 6 for this compound? `COc1ccccc1/C=C/C(=O)c1c(O)c(C)c(OC)c2c1OC1=Cc3c(c(C)nn3-c3ccccc3)[C@@H](O)[C@@]12C`
Outgoing: FALSE

Incoming: `CC(=O)C1=C(O)C=C2Oc3c4c(c(C)c(O)c3[C@@]2(C)C1=O)OCC4=O` ?
Outgoing: TRUE

Incoming: Let us now turn to `CC(=O)c1c(O)c(C)c(O)c2c1OC1=CC(=O)/C(=C(/C)N[C@H](CC(=O)O)CC(C)C)C(=O)[C@]12C`
Outgoing: TRUE

Incoming: Entry to check: `CC(=O)C1=C(O)C=C2O[C@]34O[C@@]3(C(C)=O)C(=O)C(C)=C(O)[C@]4(O)[C@@]2(C)C1=O`
Outgoing: FALSE

Incoming: Continue with `CC(=O)C1=C(O)C=C2Oc3c4c(c(C)c(O)c3[C@@]2(C)C1=O)O/C(=C\c1cccnc1)C4=O`
Outgoing: FALSE

Incoming: Quick one: CC(=O)C1=C(O)C=C2Oc3c(C(C)=O)c(O)c(C)c(O)c3[C@]2(C)C1=O [(-)-USNIC ACID]
Outgoing: FALSE

Incoming: Could you do the same for `COc1cc(/C=C/C(=O)c2c(O)c(C)c(OC)c3c2OC2=Cc4c(c(C)nn4-c4ccccc4)[C@@H](O)[C@@]23C)cc(OC)c1OC` , please?
Outgoing: FALSE

Incoming: Same thing, different compound: `CSCC[C@H](N/C(C)=C1\C(=O)C=C2Oc3c(C(C)=O)c(O)c(C)c(O)c3[C@@]2(C)C1=O)C(=O)O`
Outgoing: TRUE

Incoming: Continue with `CC(=O)c1c(O)c(C)c(O)c2c1OC1=Cc3c(c(C)nn3-c3ccccc3)[C@@H](O)[C@@]12C`
Outgoing: FALSE

Incoming: Could you do the same for `CC(=O)c1c(O)c(C)c(O)c2c1OC1=CC(=O)/C(=C(/C)NCC(=O)O)C(=O)[C@]12C` , please?
Outgoing: FALSE
